assay: Agonist activity at Protein kinase C in human MT4 cells infected with HIV-1 NL4-3 assessed as inhibition of viral replication measured on day 3 post-infection by Nano-Glo luciferase assay
reported property: IC50 (nM)

[
  {
    "smiles record": "C=C(C)[C@]12C[C@@H](COC(=O)c3ccccc3)[C@@]34OC5(O[C@@H]1[C@@H]3[C@@H]1O[C@]1(COC(=O)c1ccccc1)[C@@H](O)[C@@]1(O)[C@H]4[C@H]([C@H](C)[C@@H]1OC(=O)c1ccccc1)[C@H](C)CCCCCC[C@H]5O)O2",
    "reported property": "IC50",
    "rel": ">",
    "number": 1
  },
  {
    "smiles record": "C=C(C)[C@]12C[C@@H](COC(=O)c3ccccc3)[C@@]34OC5(O[C@@H]1[C@@H]3[C@@H]1O[C@]1(CO)[C@@H](O)[C@@]1(O)[C@H]4[C@H]([C@H](C)[C@@H]1OC(=O)c1ccc([N+](=O)[O-])cc1)[C@H](C)CCCCCC[C@H]5O)O2",
    "reported property": "IC50",
    "rel": "=",
    "number": 0.22
  },
  {
    "smiles record": "C=C(C)[C@]12C[C@@H](COC(=O)c3ccccc3)[C@@]34OC5(O[C@@H]1[C@@H]3[C@@H]1O[C@]1(CO)[C@@H](O)[C@@]1(O)[C@H]4[C@H]([C@H](C)[C@@H]1OC(=O)c1ccccc1)[C@H](C)CCCCCC[C@H]5O)O2",
    "reported property": "IC50",
    "rel": "=",
    "number": 0.13
  },
  {
    "smiles record": "C=C(C)[C@]12C[C@@H](COC(=O)c3ccccc3)[C@@]34OC5(O[C@@H]1[C@@H]3[C@@H]1O[C@]1(CO)[C@@H](O)[C@@]1(O)[C@H]4[C@H]([C@H](C)[C@@H]1OC(=O)c1ccccc1)[C@H](C)CCCCCC[C@H]5OC(=O)/C(C)=C/C)O2",
    "reported property": "IC50",
    "rel": ">",
    "number": 1
  },
  {
    "smiles record": "C=C(C)[C@]12C[C@@H](COC(=O)c3ccccc3)[C@@]34OC5(O[C@@H]1[C@@H]3[C@@H]1O[C@]1(CO)[C@@H](O)[C@@]1(O)[C@H]4[C@H]([C@H](C)[C@@H]1OC(=O)c1ccccc1)[C@H](C)CCCCCC[C@H]5OC(=O)c1ccc(OC)cc1)O2",
    "reported property": "IC50",
    "rel": ">",
    "number": 1
  },
  {
    "smiles record": "C=C(C)[C@]12C[C@@H](COC(=O)c3ccccc3)[C@@]34OC5(O[C@@H]1[C@@H]3[C@@H]1O[C@]1(COC(=O)/C=C/c1ccc(OC)cc1)[C@@H](O)[C@@]1(O)[C@H]4[C@H]([C@H](C)[C@@H]1OC(=O)c1ccccc1)[C@H](C)CCCCCC[C@H]5O)O2",
    "reported property": "IC50",
    "rel": ">",
    "number": 1
  },
  {
    "smiles record": "CC(C)[C@]12C[C@@H](COC(=O)c3ccccc3)[C@@]34OC5(O[C@@H]1[C@@H]3[C@@H]1O[C@]1(CO)[C@@H](O)[C@@]1(O)[C@H]4[C@H]([C@H](C)[C@@H]1OC(=O)c1ccccc1)[C@H](C)CCCCCC[C@H]5O)O2",
    "reported property": "IC50",
    "rel": "=",
    "number": 0.18
  }
]
